procedure_details: HCT116 colon cancer cell growth inhibition, primary screen, CellTiter-Glo luminescence, NPC library (AID 1117342)
recorded_conditions: at 20 µM (top of the series)
Active and inactive are the calls of the source.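 Rule for the calls: active = compounds that lower survival of HCT116 colon cancer cells in the luminescence readout, no numeric limit stated; inactive = the rest.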 Positions of bridges follow the written chain, without caps; N, C: chain ends. Non-standard residues stand in square brackets, D forms with d. Residues, ends and D or L forms follow the SMILES beside them. hArg = N=C(N)NCCCC[C@H](N)C(=O)O; Mpa = O=C(O)CCS
Outcome codes: active, inactive

compound	class_assignment
Nc1nc2c(ncn2COCCO)c(=O)[nH]1	inactive
C[C@H]1C[C@H](O)c2ccsc2S1(=O)=O	active
C[C@H](CCC(=O)O)[C@H]1CC[C@H]2[C@@H]3C(=O)C[C@@H]4CC(=O)CC[C@]4(C)[C@H]3CC(=O)[C@]12C	inactive
O=S1(=O)OC(c2ccc(O)cc2)(c2ccc(O)cc2)c2ccccc21	inactive
NC(=O)[C@@H]1CSSCCC(=O)N[C@@H](CCCCN=C(N)N)C(=O)NCC(=O)N[C@@H](CC(=O)O)C(=O)N[C@@H](Cc2c[nH]c3ccccc23)C(=O)N2CCC[C@H]2C(=O)N1 ([Mpa][hArg]GDWPC-NH2; disulfide 1-7)	inactive
CCCC(CCC)C(N)=O	inactive
N[C@@H]1CONC1=O	inactive
Cc1oc(-c2ccccc2)nc1CCC(=O)c1ccc(CC2SC(=O)NC2=O)cc1 (centres undefined)	active
C[C@]12C=CC(=O)C=C1CC[C@@H]1[C@@H]2C(=O)C[C@@]2(C)[C@H]1CC[C@]2(O)C(=O)CO	inactive

---

Overview of reported inhibition across a group of compounds:
procedure_details: human astrocyte viability loss, single and combined drugs, cytotoxicity control for chromothriptic childhood tumor combination screen, cell-based, BGB or cisplatin IC20 combos (AID 1671460);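 note: cells exposed to compounds for 96 hours before viability readout; 0% = vehicle and 100% = killing control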
recorded_conditions: Human astrocytes, drug combinations, at 0.5 µM, stronger effect = higher value

smiles_code	inhibition, %
O=C1c2c(O)ccc(O)c2C(=O)c2c(NCCNCCO)ccc(NCCNCCO)c21	68.8
O=C(O)CCCc1ccccc1	2.17
CCn1cc(C(=O)O)c(=O)c2cc(F)c(N3CCNCC3)cc21	5.02
O=c1[nH]cc(F)c(=O)[nH]1	-3.88

---

procedure_details: fluorescence interference in NS3h assay format, artefact control for HCV NS3 helicase inhibitor project, biochemical, NIH Clinical Collection (AID 743272);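 note: HCV NS3 helicase with a Cy5 labelled single stranded DNA probe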
recorded_conditions: fluorescence interference counterscreen, stronger effect = lower value
Parameter fluorescence ratio: see the listing below.

compound	fluorescence ratio
CCCNC(C)C(=O)Nc1ccccc1C (stereo not drawn)	0.97
CCOC(=O)C1=C(C)NC(C)=C(C(=O)OC)C1c1cccc([N+](=O)[O-])c1 (stereo not drawn)	1.03
O=C(C1CCCCC1)N1CC(=O)N2CCc3ccccc3C2C1 (stereo not drawn)	0.91

---

procedure_details: kinase inhibitors against Plasmodium liver-stage infection, cell-based, known kinase inhibitor set, luminescence, hepatoma host viability (AID 624392);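 note: infected cells incubated roughly two days before readout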
recorded_conditions: Plasmodium liver stage in hepatoma cells, luciferase luminescence, concentration not given here; measured here: host liver cell viability

smiles_code	liver cell % of control (%)
O=C1N=c2ccc(N=Cc3c(O)[nH]c4ccccc34)cc2=N1	79.5
COc1ccccc1C(=O)c1cnc(NC2CCN(S(C)(=O)=O)CC2)nc1N	100
CC(C)COC(=O)c1ccc2[nH]c(O)c(C=Nc3ccc(S(N)(=O)=O)cc3)c2c1	61
Fc1ccc(-c2ncn(C3CCNCC3)c2-c2ccnc(Oc3cccc(C(F)(F)F)c3)n2)cc1	97
COc1cc(N2CCN(C(C)C)CC2)ccc1Nc1nc(Nc2ccc(F)cc2C(N)=O)c2cc[nH]c2n1	64.4
COc1cc[nH]c1C=C1C(=O)Nc2ccc(F)c(C#CC3(O)CCOCC3)c21	128
NS(=O)(=O)c1ccc(N=Nc2c(O)[nH]c3ccc(C(=O)NCCc4cnc[nH]4)cc23)cc1	82.2
CS(=O)(=O)CCNCc1ccc(-c2ccc3ncnc(Nc4ccc(OCc5ccccc5)c(C(F)(F)F)c4)c3c2)o1	107
COc1cccc(C2=C(c3cn(C)c4cc(F)ccc34)C(=O)NC2=O)c1	128
